Reference source: patent EP4596580A1

molecular target: T1, hFc-human LIGHT (human); experiment: competition ELISA, LTβR-His coated, hFc-huLIGHT added
T1 construct: also called hFc-huLIGHT
pIC50: −log10 of the molar value.
Form field: pIC50 (one value per entry).

Binder	pIC50
hum_LT-m37-8 (antibody, human IgG4, V domains shown, humanized from LT-m37) VH: QVQLVQSGAEVKKPGASVKVSCKASGYSFTGYFINWVRQAPGQGLEWIGRIYPYNVNTFYNQNFKGRVTMTADKSTSTAYMELSSLRSEDTAVYYCGRGTHYYGSSGAMDYWGQGTLVTVSS VL: EIVMTQSPATLSVSPGERATLSCKASQNVGTAVAWYQQKPGQSPRLLIYSASNRYTGIPARFSGSGSGTEFTLTISSLQSEDFAVYFCQQYSSYPYTFGGGTKVEIK	10.17
hum_LT-m37-1 (antibody, human IgG4, V domains shown, humanized from LT-m37) VH: QVQLVQSGAEVKKPGASVKVSCKASGYSFTGYFINWVRQAPGQSLEWIGRIYPYNVNTFYNQNFKGRATLTADKSTSTAYMELSSLRSEDTAVYYCGRGTHYYGSSGAMDYWGQGTLVTVSS VL: EIVLTQSPATLSVSPGERATLSCKASQNVGTAVAWYQQKPGQSPRLLIYSASNRYTGIPARFSGSGSGTEFTLTISSLQSEDFAVYFCQQYSSYPYTFGGGTKVEIK	10.12
hum_LT-m37-2 (antibody, human IgG4, V domains shown, humanized from LT-m37) VH: QVQLVQSGAEVKKPGASVKVSCKASGYSFTGYFINWVRQAPGQGLEWIGRIYPYNVNTFYNQNFKGRATLTADKSTSTAYMELSSLRSEDTAVYYCGRGTHYYGSSGAMDYWGQGTLVTVSS VL: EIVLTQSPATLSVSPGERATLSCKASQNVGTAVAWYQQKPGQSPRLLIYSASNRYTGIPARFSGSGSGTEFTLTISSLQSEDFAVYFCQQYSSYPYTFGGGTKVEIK	10.22
hum_LT-m37-9 (antibody, human IgG4, V domains shown, humanized from LT-m37) VH: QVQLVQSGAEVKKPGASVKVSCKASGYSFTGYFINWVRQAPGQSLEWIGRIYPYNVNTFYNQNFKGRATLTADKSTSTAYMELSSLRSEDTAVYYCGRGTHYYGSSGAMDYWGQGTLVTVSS VL: EIVLTQSPATLSVSPGERATLSCKASQNVGTAVAWYQQKPGQSPRLLIYSASNRYTGIPARFSGSGSGTEFTLTISSLQSEDFAVYYCQQYSSYPYTFGGGTKVEIK	10.08
hum_LT-m37-7 (antibody, human IgG4, V domains shown, humanized from LT-m37) VH: QVQLVQSGAEVKKPGASVKVSCKASGYSFTGYFINWVRQAPGQGLEWIGRIYPYNVNTFYNQNFKGRATMTADKSTSTAYMELSSLRSEDTAVYYCGRGTHYYGSSGAMDYWGQGTLVTVSS VL: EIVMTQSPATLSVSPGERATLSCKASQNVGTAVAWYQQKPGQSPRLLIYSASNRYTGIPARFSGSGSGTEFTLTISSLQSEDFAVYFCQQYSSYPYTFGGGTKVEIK	10.16
